# System: MDA-MB-231 (breast)
# TEST DESCRIPTION: In vitro cytotoxic activity MTT assay, MDA-MB-231
# Assay type: cell-based
# RECORDED CONDITIONS: Homo sapiens; MDA-MB-231 (breast) cells, exposed for 96 hours; read-out: Cytotoxicity activity IC50 (50% inhibition of cell proliferation)
pIC50: −log10 of the molar value.
MEASURED ENDPOINT: pIC50

{"columns": ["CHEM SMILES", "OBSERVED RESULT"],
 "data": [
  ["Clc1cccc(Nc2nc3ccncc3c3nn4ccncc4c23)c1", 5.34]
]}

---

# ASSAY SYSTEM: recombinant human CK2 (RRββ-holoenzyme) (Homo sapiens, UniProt P68400)
# Sequence (P68400 whole entry): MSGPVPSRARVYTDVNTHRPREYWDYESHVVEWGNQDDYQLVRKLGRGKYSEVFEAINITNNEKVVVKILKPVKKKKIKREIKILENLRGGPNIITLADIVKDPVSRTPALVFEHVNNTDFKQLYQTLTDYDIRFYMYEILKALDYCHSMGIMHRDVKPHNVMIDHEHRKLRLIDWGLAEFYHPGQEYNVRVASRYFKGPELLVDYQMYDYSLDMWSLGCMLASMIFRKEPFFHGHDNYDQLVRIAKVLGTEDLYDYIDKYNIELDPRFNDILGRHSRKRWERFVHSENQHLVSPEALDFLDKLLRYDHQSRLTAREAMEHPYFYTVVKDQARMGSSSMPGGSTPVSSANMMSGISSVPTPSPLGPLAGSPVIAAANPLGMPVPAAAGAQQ
# Sequence (P67870 whole entry partner): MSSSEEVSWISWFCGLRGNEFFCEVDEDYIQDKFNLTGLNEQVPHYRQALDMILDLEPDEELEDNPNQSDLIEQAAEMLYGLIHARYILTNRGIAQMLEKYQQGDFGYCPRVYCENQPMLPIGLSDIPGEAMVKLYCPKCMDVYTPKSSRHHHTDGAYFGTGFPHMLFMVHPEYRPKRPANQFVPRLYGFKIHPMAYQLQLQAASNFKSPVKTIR
# TEST DESCRIPTION: CK2 Kinase Assay (33P-ATP, substrate peptide RRRDDDSDDD)
# RECORDED CONDITIONS: final ATP concentration 15 μM, 10 minutes at 30° C.; read-out: protein kinase CK2 IC50
MEASURED ENDPOINT: IC50 (nM)

{"columns": ["CHEM SMILES", "OBSERVED RESULT"],
 "data": [
  ["Clc1cccc(Nc2nc3ccncc3c3nn4ccncc4c23)c1", 38]
]}

---

# Tested on: A375 (melanoma)
# TEST DESCRIPTION: In vitro cytotoxic activity MTT assay, A375
# Assay type: cell-based
# RECORDED CONDITIONS: Homo sapiens, A-375; A375 (melanoma) cells, exposed for 96 hours; read-out: Cytotoxicity activity IC50 (50% inhibition of cell proliferation)
MEASURED ENDPOINT: IC50 (µM)

{"columns": ["CHEM SMILES", "MEASURED ENDPOINT", "OBSERVED RESULT"],
 "data": [
  ["Clc1cccc(Nc2nc3ccncc3c3nn4ccncc4c23)c1", "IC50", 3.7]
]}
